- Tested on: BT-549 breast
- Assay Overview: NCI tumour cell line growth inhibition, 48 h
For each entry below, report its TGI value.
Numbers only, in µM.

These recorded examples may help you get a feel for the data.
Molecule	Study Target	TGI, µM
N/C(=N\S(=O)(=O)c1cc(Cl)c(Oc2ccc([N+](=O)[O-])cc2Cl)c(Cl)c1)Nc1ccc(Cl)cc1	BT-549 breast	32.3
COc1cccc(Nc2nccc(-c3cnn4ncccc34)n2)c1	BT-549 breast	6.71
C/C(=N/N=C(N)N)c1ccc(NC(=O)Nc2ccc(/C(C)=N/N=C(N)N)cc2)cc1	BT-549 breast	38.7
Cc1ccc(S(=O)(=O)N2CCc3ccc(O)c4c3C2Cc2ccc3c(c2-4)OCO3)cc1 (stereo not given)	BT-549 breast	12.5
O=[N+]([O-])c1ccc(Sc2ccncn2)c([N+](=O)[O-])c1	BT-549 breast	7.55

Provide TGI for all items below, preserving their order.
1. COc1cc(/C=C/C(=O)c2c(C)nc3ccccc3c2C)ccc1OCCCN1CCN(C(=O)c2ccco2)CC1
2. COC1C(O)C(C)OC(OC2CCC3(C)C(CCC4C3C(O)CC3(C)C(C5=CC(=O)OC5)CCC43O)C2)C1O (stereo not given)
3. O=C1NC(=S)NC(=O)C1=C/C=C/c1ccc([N+](=O)[O-])cc1
4. COc1cc2c(cc1C)NC(=O)/C2=C\c1c[nH]c2ccccc12
5. CCCCCCCCOC(=O)c1cc([N+](=O)[O-])c(Sc2ncnc3nc[nH]c23)c([N+](=O)[O-])c1
6. Cc1ccc(N2C(N)=C(C#N)C(C#N)(C#N)C2c2ccccc2)cc1 (stereo not given)
7. CCOC(=O)c1cc(C2CCN(Cc3ccccc3)C2=S)c(C(=O)C=[N+]=[N-])[nH]1 (stereo not given)
8. CN1CCN(Cc2ccc(NC(=O)c3cncc(C#Cc4cnc(N)c5cnccc45)c3)cc2C(F)(F)F)CC1

A:
23.3
0.429
25
36.3
25.7
23.5
67.6
7.23

Would you mind listing TGI for each of the following molecules?
1. Cc1c(F)c(NC(=O)CN(C)C)c2c(=O)cc(-c3ccc(NC(=O)CN(C)C)c(F)c3)oc2c1F
2. c1ccc([P+](c2ccccc2)(c2ccccc2)C2c3ccccc3-c3ccccc32)cc1
3. FC(F)(F)c1cc(Nc2ccc3cc(OCCCN4CCOCC4)ccc3n2)ccc1Cl
4. COC(=O)[C@]12CC[C@@H](C)[C@H](C)[C@@H]1C1=CC[C@@H]3[C@@]4(C)C(C=O)=C[C@@](C)(COC(=O)/C=C/c5ccccc5)[C@@H]4[C@H](O)C[C@@]3(C)[C@]1(C)CC2
5. CCCN1CCC(c2ccc(Nc3nc(Nc4cc(F)ccc4C(N)=O)c4cc[nH]c4n3)c(OC)c2)CC1

A:
[35.3, 7.44, 4.07, 63.9, 8.19]

----------
- Tested on: RPMI-8226 leukemia
- Assay Overview: NCI tumour cell line growth inhibition, 48 h
Provide the reported TGI of each item.

Below, each entry is followed by its recorded TGI result.
Molecule	Observed
CC[C@@]1(CCC(=O)NCCc2c[nH]c3ccccc23)CCC(=O)N2CCc3c([nH]c4ccccc34)[C@H]21	9.59 µM
CCC[CH2][Pb]([Cl])([CH2]CCC)[CH2]CCC	0.0531 µM
CCN(Cc1ccc(F)cc1)c1ccc(CO)c(OC)c1	50.5 µM
O=[N+]([O-])c1cc2c([N+](=O)[O-])cccc2o1	11.4 µM
COC1=CC(=O)c2nc(Cl)ccc2C1=O	7.9 µM

The following molecules each have a reported value; give each one's TGI.
1. COC1CC(O[C@H]2CC[C@@]3(C)[C@@H](CC[C@]4(O)[C@@H]3CC[C@]3(C)[C@@H](C(C)=O)[C@H](OC(=O)CC(C)C)[C@@H](OC(=O)c5ccccc5)[C@@]34O)C2)OC(C)C1OC1CC(OC)C(OC2OC(C)C(O)C(OC)C2O)C(C)O1 (stereo not given in full)
2. O=c1c2cc(I)ccc2nc(-c2cccs2)n1/N=C/c1ccccc1
3. CC1(C)N=C(N)N=C(N)N1c1cccc(Br)c1
4. COC1C(O)C(C)OC(OC2CCC3(C)C(CCC4C3C(O)CC3(C)C(C5=CC(=O)OC5)CCC43O)C2)C1O (stereo not given)
5. N#Cc1ccc(C2NN=CC23C(=O)c2ccccc2OC3c2ccccc2)cc1 (stereo not given)
6. O=[N+]([O-])C(=C/c1cccs1)/C(=C\c1cccs1)[N+](=O)[O-]

A:
1. 14.5 µM
2. > 100 µM
3. > 100 µM
4. 0.793 µM
5. 61.4 µM
6. 1.14 µM
